Tested on: EKVX NSCLC
experimentDescription: NCI-60 one-dose screen, 48 h (100 = growth as untreated, 0 = no growth, -100 = all killed)
experimentalContext: 10 µM unless noted
This is part of a sample that, as a whole, favours compounds with a hit. Of some 83,000 tested, about 20% had one in any assay.
measurementType: growth (%)
Numbers only here, please. The scale is %.

Query: Could you tell me which growth is on file for `Fc1ccc(Nc2nc(Nc3ccc(-c4nc5ccccc5[nH]4)cc3)nc(N3CCCC3)n2)cc1` ?
Response: 71.9

Query: Which growth value is on record for `COc1ccc(OC)c(-c2c(C#N)c(-c3ccco3)nc3c2c(-c2ccccc2)nn3-c2ccccc2)c1` ?
Response: 87.1

Query: Which growth is listed for `O=C(NO)c1ccc(Cn2c(=O)n(CCc3ccc(O)cc3)c(=O)c3ccccc32)cc1` ?
Response: 76.7

Query: So what's the measured growth for this one? `COC(=O)[C@]12CC[C@@H](C(=O)/C=C/c3cccnc3)[C@@H]1[C@H]1CC[C@@H]3[C@@]4(C)C/C(=C/c5cccnc5)C(=O)C(C)(C)[C@@H]4CC[C@@]3(C)[C@]1(C)CC2`
Response: -76.3

Query: Need growth, item `C=C(C)[C@@H]1CC[C@]2(C(=O)OC)CC[C@]3(C)[C@H](CC[C@@H]4[C@@](C)(CC/C(N)=N/O)[C@H](C(=C)C)CC[C@]43C)[C@@H]12`
Response: 97

Query: For the compound `CN1CCN(CCOc2ccc(-c3cnc4c(-c5cccc(F)c5)cnn4c3)cc2)CC1` , what growth is on record?
Response: 76.3

Query: Need growth of `COc1ccc(/C=C(\C#N)c2cc3ccccc3n2C(C)=O)cc1` , thanks.
Response: 78

Query: Would you kindly share the measured growth for `COc1ccc2c3c(c4ccccc4cc13)C(=O)N(CCN(C)CCN)C2=O` ?
Response: -48

Query: Dear colleague, I am looking for the recorded growth of the following compound: `CC(=O)O[C@H]1CC[C@]2(C)[C@H]3C(=O)C=C4[C@@H]5C[C@](C)(C(=O)N6CCCNCC6)CC[C@]5(C)CC[C@@]4(C)[C@]3(C)CC[C@H]2C1(C)C`
Response: 54.8

Query: Tell me the measured growth of `Fc1ccc2c(c1)c(-c1nc(-c3c[nH]c4ncccc34)cs1)cn2CCCN1CCCCC1` , please.
Response: 66

Query: // query growth value for entry `COc1cccc(-c2nn(-c3ccccc3)cc2-c2ccnc(NCCCNS(=O)(=O)c3ccc(Br)cc3)c2)c1`
Response: 66

Query: // lookup growth for `N#Cc1c(-c2ccco2)nc2c(c(-c3ccccc3)nn2-c2ccccc2)c1-c1ccc(O)cc1`
Response: 56.4

Query: I'd like to know its growth. The compound in question is `O=C(N/N=C\c1c(O)ccc2ccccc12)C1CC1`
Response: 32.1

Query: What does the data say about its growth? Entry: `Nc1c(C(=O)Nc2c(Cl)cccc2Cl)sc2nc3c(cc12)C(=O)CCC3`
Response: 76

Query: What value of measured growth is listed for `C=C(C)[C@@H]1CC[C@]2(C(=O)N3CCN(CC)CC3)CC[C@]3(C)[C@H](CC[C@@H]4[C@@](C)(CCC(=O)N5CCN(CC)CC5)[C@H](C(=C)C)CC[C@]43C)[C@@H]12` ?
Response: 52.5

Query: Sample `Cn1cc(-c2csc(-c3c[nH]c4ccc(F)cc34)n2)c2cccnc21` — what was its growth?
Response: 60.4

Query: GET /values?readout=growth&item= `COc1cccc(-c2nn(-c3ccccc3)cc2-c2ccnc(NCCNS(=O)(=O)c3ccccc3)c2)c1`
Response: 47.2

Query: Which measured growth value corresponds to `COc1ccc2c(c1)c(-c1nc(-c3c[nH]c4ncccc34)cs1)cn2CCN` ?
Response: 50.1

Query: What value of measured growth is listed for `O=[N+]([O-])c1cccc(/C=N\Nc2ccccc2)c1` ?
Response: 59.8

Query: Which growth value belongs to `CSc1ccc(N(C)c2nc(C)nc3c2CCC3)cc1` ?
Response: 52.6

Query: Can you look up the measured growth of `Cc1ccc(Sc2sc(-c3ccccc3)nc2[P+](c2ccccc2)(c2ccccc2)c2ccccc2)cc1` for me?
Response: 5.57

Query: Request the reported growth associated with `CC1(C)CC[C@]2(C(=O)Nc3ccccn3)CC[C@]3(C)C(=CC[C@@H]4[C@@]5(C)C/C(=C/c6ccncc6)C(=O)C(C)(C)[C@@H]5CC[C@]43C)[C@@H]2C1`
Response: 39.3

Query: For `Cc1csc(Nc2nc(-c3cccc(Br)c3)nc(C(Cl)(Cl)Cl)n2)n1` , what is its reported growth?
Response: 22.8

Query: Which measured growth value corresponds to `Cc1cccc(C)c1NC(=O)CSC(=S)N1CCCCC1` ?
Response: 97.2

Query: For the compound `Cn1cccc1/C=C1/SC(=S)N(CCc2ccc(O)cc2)C1=O` , what growth is on record?
Response: 61

Query: Query (compound): COc1ccc(C2NC(=O)Nc3ccccc32)c(OC)c1 (configuration not stated) ; field requested: growth
Response: 97

Query: Data request, read-out growth, for `S=c1[nH]nc2ccccn12`
Response: 102

Query: Entry under review: `Cc1ccc(/C=C(\C#N)c2cc3ccccc3n2C)cc1` . Reported growth?
Response: 48.4

Query: What value of growth has been reported for the following compound? `COc1cnc2c(c1)C(=O)c1c-2n(CCCNC2=NCCS2)c(=O)c2cc([N+](=O)[O-])ccc12`
Response: 11.3

Query: Given the compound `CN(C)CCCCC(C(=O)CBr)(c1ccccc1)c1ccccc1` , what is its reported growth?
Response: 48.8

Query: Give its growth value. Item: `O=C(/C=C/c1cccc(O)c1)c1ccccc1O`
Response: 86.9

Query: Record request: growth value, item `O=S(=O)(NCCNc1cc(-c2cn(-c3ccccc3)nc2-c2cccc(O)c2)ccn1)c1cccc(F)c1`
Response: 46.6

Query: // growth lookup, key: `Cc1ccc(S(=O)(=O)Nc2ccc(-c3cc(-c4cccc(F)c4)c(C#N)c(=O)[nH]3)cc2)cc1`
Response: 83.4

Query: Look up growth for this compound: `COc1cccc(-c2nn(-c3ccccc3)cc2-c2ccnc(NCCCNS(=O)(=O)c3cccc(F)c3)c2)c1`
Response: 45.1

Query: Which value of growth has been reported for CC(CNc1nc(Nc2ccc(Cl)c(Cl)c2)nc(C(Cl)(Cl)Cl)n1)N(C)C (configuration not stated) in the records?
Response: 18.5

Query: Please give the measured growth for this compound: CCOC(=O)C1OC1(c1ccccc1)c1ccccc1 (configuration not stated)
Response: 101

Query: I would be grateful if you could share the reported growth for `COc1cc2nc(Cl)nc(Nc3cccc(C(=O)/C=C/c4ccccc4)c3)c2cc1OC` .
Response: 81.5
